Values from BigSolDB 2.1

- measurement-context: in acetonitrile, 313.15 K
measured-endpoint: solubility (mole fraction)

> print(dat)
                   smiles.entry  observed.result
1  NC(=O)c1ccc([N+](=O)[O-])cc1          0.00232

====

- measurement-context: in NMP, 323.15 K
measured-endpoint: solubility (mole fraction)

> print(dat)
                   smiles.entry  observed.result
1  NC(=O)c1ccc([N+](=O)[O-])cc1            0.144

====

- measurement-context: in n-propanol, 328.15 K
measured-endpoint: solubility (mole fraction)

> print(dat)
                   smiles.entry  observed.result
1  NC(=O)c1ccc([N+](=O)[O-])cc1          0.00533

====

- measurement-context: in DMSO, 293.15 K
measured-endpoint: solubility (mole fraction)

> print(dat)
                   smiles.entry  observed.result
1  NC(=O)c1ccc([N+](=O)[O-])cc1           0.0372

====

- measurement-context: in isopropanol, 313.15 K
measured-endpoint: solubility (mole fraction)

> print(dat)
                   smiles.entry  observed.result
1  NC(=O)c1ccc([N+](=O)[O-])cc1          0.00408

====

- measurement-context: in DMF, 303.15 K
measured-endpoint: solubility (mole fraction)

> print(dat)
                   smiles.entry  observed.result
1  NC(=O)c1ccc([N+](=O)[O-])cc1           0.0691

====

- measurement-context: in DMSO, 313.15 K
measured-endpoint: solubility (mole fraction)

> print(dat)
                   smiles.entry           measured.endpoint  observed.result
1  NC(=O)c1ccc([N+](=O)[O-])cc1  solubility (mole fraction)           0.0747

====

- measurement-context: in n-propanol, 303.15 K
measured-endpoint: solubility (mole fraction)

> print(dat)
                   smiles.entry  observed.result
1  NC(=O)c1ccc([N+](=O)[O-])cc1          0.00228

====

- measurement-context: in NMP, 298.15 K
measured-endpoint: solubility (mole fraction)

> print(dat)
                   smiles.entry  observed.result
1  NC(=O)c1ccc([N+](=O)[O-])cc1           0.0653

====

- measurement-context: in NMP, 283.15 K
measured-endpoint: solubility (mole fraction)

> print(dat)
                   smiles.entry           measured.endpoint  observed.result
1  NC(=O)c1ccc([N+](=O)[O-])cc1  solubility (mole fraction)           0.0418

====

- measurement-context: in n-propanol, 318.15 K
measured-endpoint: solubility (mole fraction)

> print(dat)
                   smiles.entry  observed.result
1  NC(=O)c1ccc([N+](=O)[O-])cc1          0.00381

====

- measurement-context: in ethanol, 323.15 K
measured-endpoint: solubility (mole fraction)

> print(dat)
                   smiles.entry  observed.result
1  NC(=O)c1ccc([N+](=O)[O-])cc1          0.00735

====

- measurement-context: in ethylene glycol, 298.15 K
measured-endpoint: solubility (mole fraction)

> print(dat)
                   smiles.entry  observed.result
1  NC(=O)c1ccc([N+](=O)[O-])cc1            0.006
